# SYSTEM: mouse VISTA (mVISTA) (Mus musculus)
# Construct: expressed in transfected cells; host or cells: Human embryonic kidney 293T cells
# Sequence (Q9D659 33-308): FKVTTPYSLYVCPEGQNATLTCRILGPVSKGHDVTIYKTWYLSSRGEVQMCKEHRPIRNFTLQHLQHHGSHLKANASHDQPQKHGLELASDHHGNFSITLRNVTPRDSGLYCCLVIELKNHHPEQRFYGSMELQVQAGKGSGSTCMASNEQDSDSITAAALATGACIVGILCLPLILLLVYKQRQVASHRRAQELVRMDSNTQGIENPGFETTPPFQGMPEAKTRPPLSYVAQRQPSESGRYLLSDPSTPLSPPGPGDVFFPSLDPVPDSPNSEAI
# TEST_DESCRIPTION: Cell-Based Binding High-Content Assay For mVISTA (HC CBA mVISTA)
# CONDITION: read-out: HC CBA mVISTA IC50
Positions of bridges follow the written chain, without caps; N, C: chain ends. Non-standard residues stand in square brackets, D forms with d. Residues, ends and D or L forms follow the SMILES beside them. ξ: configuration not given here. Phe(3-CF3) = N[C@@H](Cc1cccc(C(F)(F)F)c1)C(=O)O; Phe(4-Me) = Cc1ccc(C[C@H](N)C(=O)O)cc1; NMeIle(3ξ) = CCC(C)[C@H](NC)C(=O)O; Tic = O=C(O)[C@@H]1Cc2ccccc2CN1; Cit = NC(=O)NCCC[C@H](N)C(=O)O; Ahp(2) = CCCCC[C@H](N)C(=O)O; NMeNle = CCCC[C@H](NC)C(=O)O; Tle = CC(C)(C)[C@H](N)C(=O)O; NHexGly = CCCCCCNCC(=O)O; NMeA = CN[C@@H](C)C(=O)O; Nle = CCCC[C@H](N)C(=O)O; Abu = CC[C@H](N)C(=O)O
Catalogue of compounds with associated pIC50
# pIC50 = -log10(concentration in molar units)

// below: answered compounds
INSERT INTO assay_data (compound, parameter_measured, reported) VALUES
  ('CCCCCCN1CC(=O)N[C@@H](Cc2ccc(O)cc2)C(=O)N[C@@H](CCCC)C(=O)N[C@@H](CC(N)=O)C(=O)N[C@@H](CCCNC(N)=O)C(=O)N2Cc3ccccc3C[C@H]2C(=O)N[C@@H](CCCCC)C(=O)N2CCC[C@H]2C(=O)N[C@@H](C(C)C)C(=O)N[C@@H](CO)C(=O)N[C@H](C(=O)NCC(N)=O)CSCC(=O)N[C@@H](Cc2ccccc2)C(=O)N[C@@H](Cc2c[nH]c3ccccc23)C(=O)N[C@@H](CC(=O)O)C1=O [Example 1413] ({CH2CO}-FWD[NHexGly]Y[Nle]N[Cit][Tic][Ahp(2)]PVSCG-NH2; thioether N-14)', 'pIC50', 7.72),
  ('CCCCCCN1CC(=O)N[C@@H](Cc2ccc(O)cc2)C(=O)N[C@@H](CCCC)C(=O)N[C@@H](CC(N)=O)C(=O)N[C@@H](CCCNC(=N)N)C(=O)N[C@@H](CC(C)C)C(=O)N[C@@H](CCCCC)C(=O)N2CCC[C@H]2C(=O)N[C@@H](C(C)C)C(=O)N[C@@H](CC(=O)O)C(=O)N[C@H](C(=O)NCC(=O)O)CSCC(=O)N[C@@H](Cc2ccccc2)C(=O)N[C@@H](Cc2cccc(C(F)(F)F)c2)C(=O)N[C@@H](CC(=O)O)C1=O [compound 1332] ({CH2CO}-F[Phe(3-CF3)]D[NHexGly]Y[Nle]NRL[Ahp(2)]PVDCG-OH; thioether N-14)', 'pIC50', 7.92),
  ('CCCCCCN1CC(=O)N[C@@H](Cc2ccc(O)cc2)C(=O)N[C@@H](CCCC)C(=O)N[C@@H](CC(N)=O)C(=O)N[C@@H](CCCNC(=N)N)C(=O)N2Cc3ccccc3C[C@H]2C(=O)N[C@@H](CCCCC)C(=O)N2CCC[C@H]2C(=O)N[C@@H](C(C)C)C(=O)N[C@@H](CO)C(=O)N[C@H](C(=O)NCC(N)=O)CSCC(=O)N[C@@H](Cc2ccccc2)C(=O)N[C@@H](Cc2c[nH]c3ccccc23)C(=O)N[C@@H](CC(=O)O)C1=O [Example 1415] ({CH2CO}-FWD[NHexGly]Y[Nle]NR[Tic][Ahp(2)]PVSCG-NH2; thioether N-14)', 'pIC50', 7.74),
  ('CCCCCCN1CC(=O)N[C@@H](Cc2ccc(O)cc2)C(=O)N[C@@H](CC(C)C)C(=O)N[C@@H](CC(N)=O)C(=O)N[C@@H](CCCNC(=N)N)C(=O)N(C)[C@@H](CCCC)C(=O)N[C@@H](CCCCC)C(=O)N2CCC[C@H]2C(=O)N[C@@H](C(C)(C)C)C(=O)N[C@@H](CO)C(=O)N[C@H](C(=O)NCC(N)=O)CSCC(=O)N[C@@H](Cc2ccc(C)cc2)C(=O)N[C@@H](Cc2ccc(O)cc2)C(=O)N[C@@H](CC(=O)O)C1=O [compound 1215] ({CH2CO}-[Phe(4-Me)]YD[NHexGly]YLNR[NMeNle][Ahp(2)]P[Tle]SCG-NH2; thioether N-14)', 'pIC50', 7.78);

**Q:** What measured pIC50 goes with CCCCCCN1CC(=O)N[C@@H](Cc2ccc(O)cc2)C(=O)N[C@@H](CCCC)C(=O)N[C@@H](CC(N)=O)C(=O)N[C@@H](CCCNC(=N)N)C(=O)N(C)[C@@H](CCCC)C(=O)N[C@@H](CCCCC)C(=O)N(C)[C@@H](C)C(=O)N[C@@H](C(C)C)C(=O)N[C@@H](CO)C(=O)N[C@H](C(=O)NCC(N)=O)CSCC(=O)N[C@@H](Cc2ccccc2)C(=O)N[C@@H](Cc2c[nH]c3ccccc23)C(=O)N[C@@H](CC(=O)O)C1=O [compound 1143] ({CH2CO}-FWD[NHexGly]Y[Nle]NR[NMeNle][Ahp(2)][NMeA]VSCG-NH2; thioether N-14) ?
**A:** 7.75

**Q:** I am curious: what pIC50 value has been reported for CCCCCCN1CC(=O)N[C@@H](Cc2ccc(O)cc2)C(=O)N[C@@H](CC(C)C)C(=O)NCC(=O)N[C@@H](CCCNC(=N)N)C(=O)N2Cc3ccccc3C[C@H]2C(=O)N[C@@H](CCCCC)C(=O)N2CCC[C@H]2C(=O)N[C@@H](C(C)C)C(=O)N[C@@H](CO)C(=O)N[C@H](C(=O)NCC(N)=O)CSCC(=O)N[C@@H](Cc2ccccc2)C(=O)N[C@@H](Cc2ccc(O)cc2)C(=O)N[C@@H](CC(=O)O)C1=O [compound 1158] ({CH2CO}-FYD[NHexGly]YLGR[Tic][Ahp(2)]PVSCG-NH2; thioether N-14) ?
**A:** 7.95

**Q:** So what does the record say about pIC50 for CCCCCCN1CC(=O)N[C@@H](Cc2ccc(O)cc2)C(=O)N[C@@H](CC)C(=O)NCC(=O)N[C@@H](CCCNC(=N)N)C(=O)N[C@@H](CC(C)C)C(=O)N[C@@H](CCCCC)C(=O)N2CCC[C@H]2C(=O)N[C@@H](C(C)C)C(=O)N2CCC[C@H]2C(=O)N[C@H](C(=O)NCC(=O)O)CSCC(=O)N[C@@H](Cc2ccccc2)C(=O)N[C@@H](Cc2ccc(O)cc2)C(=O)N[C@@H](CC(=O)O)C1=O [compound 1123] ({CH2CO}-FYD[NHexGly]Y[Abu]GRL[Ahp(2)]PVPCG-OH; thioether N-14) ?
**A:** 7.60

**Q:** Can you share its pIC50? I mean this compound: CCCCCCN1CC(=O)N[C@@H](Cc2ccc(O)cc2)C(=O)N[C@@H](CCCC)C(=O)N[C@@H](CC(N)=O)C(=O)N[C@@H](CCCNC(=N)N)C(=O)N(C)[C@@H](C(C)CC)C(=O)N[C@@H](CCCCC)C(=O)N2CCC[C@H]2C(=O)N[C@@H](C(C)C)C(=O)N[C@@H](CC(=O)O)C(=O)N[C@H](C(=O)NCC(=O)O)CSCC(=O)N[C@@H](Cc2ccccc2)C(=O)N[C@@H](Cc2c[nH]c3ccccc23)C(=O)N[C@@H](CC(=O)O)C1=O (some centres unmarked) [Example 1367] ({CH2CO}-FWD[NHexGly]Y[Nle]NR[NMeIle(3ξ)][Ahp(2)]PVDCG-OH; thioether N-14)
**A:** 7.95
